Below, each of the molecules is paired with its reported inhibition value.
Molecular target: Dihydrofolate reductase (Homo sapiens)
Assay: Inhibition of human DHFR receptor at 1 uM
The reply should contain only the number, in %.

// worked examples, inhibition included
| molecule | unit tag | endpoint result |
| --- | --- | --- |
| CS(=O)(=O)c1ccc(CNc2ccc(-c3c(N)nc(N)nc3C3CC4CCC3C4)cc2)cc1 (stereo not given) | % | 3 |
| CS(=O)(=O)c1ccc(CNc2ccc(-c3c(N)nc(N)nc3C3CCCC3)cc2)cc1 | % | 73 |
| CC(C)CCOCc1nc(N)nc(N)c1-c1ccc(NCc2ccc(S(C)(=O)=O)cc2)cc1 | % | 88 |

Please state recorded inhibition (tested on Dihydrofolate reductase (Homo sapiens)) of Cc1cc(C)cc(CNC(=O)CCc2nc(N)nc(N)c2-c2ccc(NCc3ccc(S(C)(=O)=O)cc3)cc2)c1
82

Please state recorded inhibition (tested on Dihydrofolate reductase (Homo sapiens)) of CS(=O)(=O)c1ccc(CNc2ccc(-c3c(N)nc(N)nc3CN3CCc4ccccc4C3)cc2)cc1
29

Please state recorded inhibition (tested on Dihydrofolate reductase (Homo sapiens)) of CCc1nc(N)nc(NC)c1-c1ccc(NCc2ccc(S(C)(=O)=O)cc2)cc1
41

Please state recorded inhibition (tested on Dihydrofolate reductase (Homo sapiens)) of CC(C)(C)c1nc(N)nc(N)c1-c1ccc(NCc2ccc(S(C)(=O)=O)cc2)cc1
47

Please state recorded inhibition (tested on Dihydrofolate reductase (Homo sapiens)) of CS(=O)(=O)c1ccc(CNc2ccc(-c3c(N)nc(N)nc3C3CCCCC3)cc2)cc1
16

Please state recorded inhibition (tested on Dihydrofolate reductase (Homo sapiens)) of CN(Cc1nc(N)nc(N)c1-c1ccc(NCc2ccc(S(C)(=O)=O)cc2)cc1)c1ccccc1
42

* * *

Below, each of the compounds is paired with its reported IC50 value.
Biological target: Growth hormone secretagogue receptor type 1 (Homo sapiens)
Sequence (Q92847 whole entry): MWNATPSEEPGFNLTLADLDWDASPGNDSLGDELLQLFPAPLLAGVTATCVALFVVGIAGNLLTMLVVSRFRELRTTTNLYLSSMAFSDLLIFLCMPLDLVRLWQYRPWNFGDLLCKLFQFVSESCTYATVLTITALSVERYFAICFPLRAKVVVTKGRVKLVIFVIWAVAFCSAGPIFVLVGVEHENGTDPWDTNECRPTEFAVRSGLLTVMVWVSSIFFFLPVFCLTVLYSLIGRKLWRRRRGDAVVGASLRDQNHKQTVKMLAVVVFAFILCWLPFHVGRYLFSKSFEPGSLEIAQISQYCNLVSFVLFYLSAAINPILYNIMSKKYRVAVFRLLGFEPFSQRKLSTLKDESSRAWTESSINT
Assay: Inhibition of human GHS receptor by binding assay
The reply should contain only the number, in nM.

// worked examples, IC50 included
| item smiles | IC50 / nM |
| --- | --- |
| CCc1nc(N)nc(N(C)C)c1-c1ccc(NCc2ccc(S(C)(=O)=O)cc2)cc1 | 192 |
| CCCNc1nc(N)nc(CC)c1-c1ccc(NCc2ccc(S(C)(=O)=O)cc2)cc1 | 151 |

Please state recorded IC50 (tested on Growth hormone secretagogue receptor type 1 (Homo sapiens)) of Cc1ccc(COCc2nc(N)nc(N)c2-c2ccc(NCc3ccc(S(C)(=O)=O)cc3)cc2)o1
3.4

* * *

Target: Dihydrofolate reductase (Homo sapiens) (UniProt P00374)
Sequence (P00374 whole entry): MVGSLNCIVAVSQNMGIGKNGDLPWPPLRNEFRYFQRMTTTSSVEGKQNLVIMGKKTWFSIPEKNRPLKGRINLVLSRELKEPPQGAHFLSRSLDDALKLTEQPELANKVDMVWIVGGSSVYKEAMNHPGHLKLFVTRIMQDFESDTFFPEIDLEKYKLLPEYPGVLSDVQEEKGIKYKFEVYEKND
Assay: Inhibition of human DHFR receptor at 10 uM
Label true for high-side inhibition (at or above 80%) and false for low-side inhibition (below it).

| molecule | classification |
| --- | --- |
| Cc1cc(C)cc(CNC(=O)CCc2nc(N)nc(N)c2-c2ccc(NCc3ccc(S(C)(=O)=O)cc3)cc2)c1 | true |
| CS(=O)(=O)c1ccc(CNc2ccc(-c3c(N)nc(N)nc3C3CCCCC3)cc2)cc1 | false |
| CS(=O)(=O)c1ccc(CNc2ccc(-c3c(N)nc(N)nc3CN3CCc4ccccc4C3)cc2)cc1 | false |
| CS(=O)(=O)c1ccc(CNc2ccc(-c3c(N)nc(N)nc3[C@H]3CC4C=CC3C4)cc2)cc1 (some centres undefined) | false |
| CN(Cc1nc(N)nc(N)c1-c1ccc(NCc2ccc(S(C)(=O)=O)cc2)cc1)c1ccccc1 | true |

Confirm if inhibition reported for the molecule CS(=O)(=O)c1ccc(CNc2ccc(-c3c(N)nc(N)nc3[C@H]3CCCO3)cc2)cc1 is 80% or above.
true

Confirm if inhibition reported for the molecule CS(=O)(=O)c1ccc(CNc2ccc(-c3c(N)nc(N)nc3[C@@H]3CCCO3)cc2)cc1 is 80% or above.
false

Confirm if inhibition reported for the molecule CS(=O)(=O)c1ccc(CNc2ccc(-c3c(N)nc(N)nc3[C@@H]3CC4C=CC3C4)cc2)cc1 (some centres undefined) is 80% or above.
false
